B1: library; numbered along this chain (parent)
chain: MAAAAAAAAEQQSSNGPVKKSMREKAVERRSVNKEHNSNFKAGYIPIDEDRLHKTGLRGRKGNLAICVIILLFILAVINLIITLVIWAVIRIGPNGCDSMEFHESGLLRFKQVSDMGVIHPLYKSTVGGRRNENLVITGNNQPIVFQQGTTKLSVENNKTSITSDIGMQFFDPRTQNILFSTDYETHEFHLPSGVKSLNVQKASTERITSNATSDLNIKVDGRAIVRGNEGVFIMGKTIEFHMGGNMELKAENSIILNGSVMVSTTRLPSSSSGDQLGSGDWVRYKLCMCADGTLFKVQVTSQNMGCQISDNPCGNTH

Variants of: B1
measurement-notes: SGCB cell-surface expression functional score (HA stain, bin4 vs bin1, normalised to synonymous) (log10 ratio); higher = more cell-surface SGCB (functional)
Label True when SGCB cell-surface expression functional score (log10) is at or above 0.09; otherwise label False.

variant-spec | qualitative-label
P17Q | False

Turning to the following variant.
Check this variant for SGCB cell-surface expression functional score (log10) at or above 0.09: K20G
False
